FYI, the data here is from PubChem BioAssay (NCI).

- System: HOP-18 NSCLC
- Procedure text: NCI tumour cell line growth inhibition, 48 h
Parameter: TGI

Task item: Need TGI of CCc1cccc(CC)c1NC(=S)NC(=O)c1ccc(Br)cc1 , thanks.
Reply: > 100 µM

Task item: Report TGI for CC1CCCC(C(O)CC2CC(=O)N(c3ccccc3)C(=O)C2)C1=O (stereo not given) please.
Reply: > 100 µM

Task item: Dear colleague, I am looking for the recorded TGI of the following molecule: NC(=O)c1csc(C2C=CC(CO)O2)n1 (stereo not given)
Reply: > 100 µM

Task item: Given C=C(CN(CC(=C)C(=O)c1ccccc1)C(C)(C)C)C(=O)c1ccccc1 , state its recorded TGI.
Reply: 14.3 µM

Task item: Quick one: TGI of CC1=C(C(=O)Nc2ccccc2C)C(c2ccc([N+](=O)[O-])cc2)C(C(=O)Nc2ccccc2C)=C(C)N1 ?
Reply: > 100 µM

Task item: Tell me the measured TGI of NC(=O)c1[nH]nc(C2OC(CO)C(O)C2O)c1O (stereo not given) , please.
Reply: 812 µM

Task item: Query: TGI; subject: Cn1cc2c(n1)c(N/N=C/c1ccccc1)nn1nnnc21
Reply: > 100 µM

Task item: Fill blank: measured TGI of the molecule Cc1ccc(NC(=O)CC(=O)n2nc(-c3ccccc3)c(N=Nc3ccc(Cl)cc3)c2-c2ccccc2)cc1 is ____.
Reply: > 100 µM

Task item: Would you kindly share the measured TGI for CC(=O)NNc1nc(C)c(C(/C=C/c2ccc(Cl)cc2)=N\NS(=O)(=O)c2ccc(C)cc2)s1 ?
Reply: > 100 µM

Task item: Any idea what its TGI is? The molecule is CCSc1nc2sc(C)c(C)c2c(=O)n1-c1ccc(C(=O)O)cc1
Reply: 48.6 µM
